Where do the numbers come from? From PubChem BioAssay (Tox21).

- PROTOCOL_DESCRIPTION: Caspase-3/7 induction in HepG2 cells by small molecules, qHTS cell viability counter screen (AID 1346981); note: nearly all actives have a fitted effect of over 30% in size
- RUN_PARAMETERS: CellTiter-Fluor fluorescence, 17 h; series mostly up to 92.4 µM
Inconclusive results are not listed. Active and inactive are the calls of the source. Calls come from the whole dose curve; as a rule, active = well fitted cell-killing curve with a large enough effect in the repeat runs; inconclusive = weak or mixed curves, or effect the other way; inactive = flat fitted curve, though single readings scatter.
Response enum: active, inactive

1. CN1CSC(=S)N(C)C1 :: inactive
2. Cc1ccc(N(SC(F)(Cl)Cl)S(=O)(=O)N(C)C)cc1 :: active

Recorded test outcome, item OCC(c1ccc(Cl)cc1)c1ccc(Cl)cc1 inactive

Recorded test outcome, item C[C@]12CC[C@@H](O)C[C@@H]1CC[C@@H]1[C@@H]2CC[C@]2(C)C(=O)CC[C@@H]12 inactive

Recorded test outcome, item CC1COC(Cn2cncn2)(c2ccc(Oc3ccc(Cl)cc3)cc2Cl)O1 (stereo not given) active

Recorded test outcome, item c1ccc2c(c1)Sc1ccccc1N2CC1CN2CCC1CC2 (stereo not given) active

Recorded test outcome, item Oc1c(I)cc(I)cc1I inactive

Recorded test outcome, item Nc1ccc([N+](=O)[O-])cc1 active

Recorded test outcome, item Clc1ccccc1-c1ccccc1Cl inactive

Recorded test outcome, item O=C(Nc1ccccc1-c1ccc(Cl)cc1)c1cccnc1Cl inactive

----------
- TARGET_OF_ASSAY: Estrogen receptor (Homo sapiens) (UniProt P03372)
- Sequence (P03372 whole entry, looked up): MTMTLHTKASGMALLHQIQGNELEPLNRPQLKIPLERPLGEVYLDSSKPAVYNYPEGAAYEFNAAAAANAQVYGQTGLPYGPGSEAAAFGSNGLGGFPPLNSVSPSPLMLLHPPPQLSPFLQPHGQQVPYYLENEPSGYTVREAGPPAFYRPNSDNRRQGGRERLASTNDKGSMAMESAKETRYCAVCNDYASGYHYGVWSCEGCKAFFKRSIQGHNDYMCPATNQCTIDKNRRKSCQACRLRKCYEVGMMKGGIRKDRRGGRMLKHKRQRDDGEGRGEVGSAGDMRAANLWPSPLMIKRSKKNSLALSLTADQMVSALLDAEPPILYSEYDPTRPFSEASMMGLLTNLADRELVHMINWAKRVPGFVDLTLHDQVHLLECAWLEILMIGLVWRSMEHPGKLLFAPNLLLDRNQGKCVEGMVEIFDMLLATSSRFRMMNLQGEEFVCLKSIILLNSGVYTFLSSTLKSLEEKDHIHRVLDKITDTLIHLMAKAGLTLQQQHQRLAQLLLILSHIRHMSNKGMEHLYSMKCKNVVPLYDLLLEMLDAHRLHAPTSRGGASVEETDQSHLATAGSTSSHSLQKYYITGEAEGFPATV
- PROTOCOL_DESCRIPTION: qHTS assay to identify small molecule agonists of the estrogen receptor alpha (ER-alpha) signaling pathway (AID 743075);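 note: HEK293 GripTite cells with ER-alpha and UAS-driven beta-lactamase reporter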
- RUN_PARAMETERS: HEK293 ER-alpha-UAS-bla, beta-lactamase FRET ratio, 18 h; series mostly up to 70.1 µM
The source made the active and inactive calls. The call rests on the fitted dose curve.
Response enum: YES (active), NO (inactive)

Field: example entries. Status: answers known.
1) CC(=O)OO :: NO
2) CCCCc1ccc(C(=O)O)nc1 :: NO
3) CCN(CC)CCO[C@H]1CC[C@@]2(C)C(=CC[C@@H]3[C@@H]2CC[C@]2(C)C(=O)CC[C@@H]32)C1 :: NO
4) O=P1(N(CCCl)CCCl)NC(OO)CCO1 (stereo unspecified) :: NO
5) CC(=O)O[C@H]1CC[C@H]2[C@@H]3CCC4=CC(=O)CCC4=C3C=C[C@]12C :: YES

Recorded test outcome, item CN[C@@]1(c2ccccc2Cl)CCCCC1=O NO

Recorded test outcome, item CC(=O)[C@H]1CC[C@H]2[C@@H]3CC[C@@H]4C[C@H](O)CC[C@]4(C)[C@H]3CC[C@]12C YES

Recorded test outcome, item O=C1C(I)=CC(=C(c2cc(I)c(O)c(I)c2)c2ccccc2C(=O)O)C=C1I NO

----------
- PROTOCOL_DESCRIPTION: qHTS RealTime-Glo MT Cell Viability Assay in HEK293 cells - 40 hour (AID 1224874); note: % is set by controls: 0 for no effect and ±100 for the full control effect; nearly all actives have a fitted effect of over 50% in size
- RUN_PARAMETERS: RealTime-Glo luminescence; hits give low values
Records with an inconclusive call do not appear.
Measured max response of individual entries
Report the figure in % without appending any unit label.

1) O=[N+]([O-])c1c(Cl)c(Cl)cc(Cl)c1Cl :: 0.554
2) N#Cc1cc([N+](=O)[O-])ccc1N :: -6.49
3) Oc1c(I)cc(I)cc1I :: -25
4) O=C1C(I)=CC(=C(c2cc(I)c(O)c(I)c2)c2ccccc2C(=O)O)C=C1I :: -8.4

Sample Cc1ccc2nc3sc(=O)sc3nc2c1 ; max response observed: 3.19

----------
Measured activity change, negative = inhibition of individual entries
- TARGET_OF_ASSAY: Acetylcholinesterase (Homo sapiens) (UniProt P22303)
- Sequence (P22303 whole entry, looked up): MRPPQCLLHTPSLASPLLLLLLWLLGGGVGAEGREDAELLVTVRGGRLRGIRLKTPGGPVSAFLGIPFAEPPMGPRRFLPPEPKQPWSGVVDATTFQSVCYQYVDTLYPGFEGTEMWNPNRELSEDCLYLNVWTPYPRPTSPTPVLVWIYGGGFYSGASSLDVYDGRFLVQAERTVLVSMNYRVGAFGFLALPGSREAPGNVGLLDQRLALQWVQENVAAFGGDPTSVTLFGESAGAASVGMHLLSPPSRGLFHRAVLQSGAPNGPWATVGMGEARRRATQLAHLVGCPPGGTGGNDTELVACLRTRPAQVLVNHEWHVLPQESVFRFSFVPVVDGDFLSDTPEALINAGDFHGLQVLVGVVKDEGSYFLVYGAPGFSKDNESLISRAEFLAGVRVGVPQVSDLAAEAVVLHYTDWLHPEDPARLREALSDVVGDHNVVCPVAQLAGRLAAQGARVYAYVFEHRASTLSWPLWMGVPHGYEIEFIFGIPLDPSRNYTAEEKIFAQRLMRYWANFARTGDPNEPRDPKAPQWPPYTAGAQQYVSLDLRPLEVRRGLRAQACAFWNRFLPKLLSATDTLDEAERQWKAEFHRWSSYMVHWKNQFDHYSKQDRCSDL
- PROTOCOL_DESCRIPTION: Acetylcholinesterase (AChE) small molecule antagonists: enzyme-based qHTS assay with human liver microsomes (AID 1347399); note: % is set by controls: 0 for no effect and ±100 for the full control effect; nearly all actives have a fitted effect of over 60% in size
- RUN_PARAMETERS: series mostly up to 115 µM
The source made the active and inactive calls. Calls follow the shape of the full dose curve.

The following molecules have reported results that may help.
1) C[C@](N)(Cc1ccc(O)cc1)C(=O)O :: -2.1% [at 10.5 µM] (inactive)
2) O=C(C(=O)c1ccc(Br)cc1)c1ccc(Br)cc1 :: -3.65% [at 23.6 µM] (inactive)
3) COc1cc2ncnc(Nc3cccc(Cl)c3)c2cc1OC :: 1.05% [at 23.6 µM] (inactive)
4) C=C[Si](C)(C)Cl :: -5.99% [at 10.5 µM] (inactive)

Sample NC(=S)Nc1cccc2ccccc12 ; activity change, negative = inhibition observed: 0.729% [at 10.5 µM] (inactive)

Sample Nc1ccc2c(c1)CN1C(=O)c3ccccc3C1=N2 ; activity change, negative = inhibition observed: 6.82% [at 23.6 µM] (inactive)

Sample CC1=CC[C@@H]2C[C@H]1C2(C)C ; activity change, negative = inhibition observed: -3.81% [at 23.6 µM] (inactive)

Sample C[C@@H]1CN(c2c(F)c(N)c3c(=O)c(C(=O)O)cn(C4CC4)c3c2F)C[C@H](C)N1 ; activity change, negative = inhibition observed: 0.841% [at 23.6 µM] (inactive)

Sample Nc1ccc(S(=O)(=O)Nc2ccnn2-c2ccccc2)cc1 ; activity change, negative = inhibition observed: -0.674% [at 23.6 µM] (inactive)

Sample Nc1ccc(/C=C/c2ccc(N)cc2S(=O)(=O)O)c(S(=O)(=O)O)c1 ; activity change, negative = inhibition observed: -0.084% [at 0.435 µM] (inactive)

Sample CCn1cc(C(=O)O)c(=O)c2cnc(N3CCCC3)nc21 ; activity change, negative = inhibition observed: -1.77% [at 10.5 µM] (inactive)

----------
- TARGET_OF_ASSAY: Acetylcholinesterase (Homo sapiens)
- PROTOCOL_DESCRIPTION: Acetylcholinesterase (AChE) small molecule antagonists: fluorescence cell-based qHTS assay (AID 1347398); note: nearly all actives have a fitted effect of over 50% in size
- RUN_PARAMETERS: SH-SY5Y cells; AChE activity; series mostly up to 115 µM
Records with an inconclusive call do not appear. The source made the active and inactive calls. The call rests on the fitted dose curve.
Response enum: label 1 = active, label 0 = inactive

Field: example entries. Status: answers known.
1. CC1=C(C=O)C(C)(C)CCC1 :: label 0
2. CC(C)[C@@H]1CC[C@@H](C)C[C@H]1O :: label 0

Recorded test outcome, item Cc1cc(O)c(Cl)cc1C label 0

Recorded test outcome, item NCCCN1CCN(CCCN)CC1 label 0

Recorded test outcome, item CCCCCC/C(C=O)=C\c1ccccc1 label 0

Recorded test outcome, item CC(C)=CC(C)(C)C label 0

Recorded test outcome, item CCCCNC(=O)NCCCC label 0

Recorded test outcome, item [O-][n+]1ccccc1SSc1cccc[n+]1[O-] label 1

----------
- PROTOCOL_DESCRIPTION: qHTS assay to identify small molecule antagonists of the estrogen receptor alpha (ER-alpha) signaling pathway - cell viability counter screen (AID 743074);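 note: HEK293 cells carrying ER-alpha-UAS-bla reporter stimulated with 17beta-estradiol; % is set by controls: 0 for no effect and ±100 for the full control effect; nearly all actives have a fitted effect of over 45% in size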
- RUN_PARAMETERS: ERalpha-bla HEK293 viability, CellTiter-Glo luminescence, 18 h; series mostly up to 69.4 µM
Inconclusive results are not listed. Active and inactive are the calls of the source. Calls come from the whole dose curve.
Response enum: label 1 = active, label 0 = inactive

1) c1ccc2c(c1)Sc1ccccc1N2C[C@@H]1CN2CCC1CC2 :: label 0

Recorded test outcome, item C[C@@H](CO)NC(=O)[C@@H]1C=C2c3cccc4[nH]cc(c34)C[C@H]2N(C)C1 label 0

Recorded test outcome, item Cc1nnc2n1-c1ccc(Cl)cc1C(c1ccccc1Cl)=NC2 label 0

----------
- PROTOCOL_DESCRIPTION: qHTS assay to identify small molecule agonists of the progesterone receptor (PR) signaling pathway - cell viability counter screen (AID 1346799); note: nearly all actives have a fitted effect of over 45% in size
- RUN_PARAMETERS: PR-UAS-bla HEK293T viability, CellTiter-Glo luminescence, 16 h; series mostly up to 92.4 µM
Results filed as inconclusive are left out. Active and inactive are the calls of the source. Calls come from the whole dose curve.
Response enum: active, inactive

Field: example entries. Status: answers known.
1. ClC(Cl)=C(c1ccc(Cl)cc1)c1ccccc1Cl :: inactive
2. CN1CSC(=S)N(C)C1 :: active
3. Nc1ccc([N+](=O)[O-])cc1 :: active
4. Clc1ccccc1-c1ccccc1Cl :: inactive
5. c1ccc2c(c1)Sc1ccccc1N2CC1CN2CCC1CC2 (centres undefined) :: active
6. Cc1ccc(N(SC(F)(Cl)Cl)S(=O)(=O)N(C)C)cc1 :: inactive

Recorded test outcome, item CNC(=O)Oc1cc(C)c(SC)c(C)c1 inactive

Recorded test outcome, item OCC(c1ccc(Cl)cc1)c1ccc(Cl)cc1 inactive

Recorded test outcome, item C[C@]12CC[C@@H](O)C[C@@H]1CC[C@@H]1[C@@H]2CC[C@]2(C)C(=O)CC[C@@H]12 active

----------
- TARGET_OF_ASSAY: Nuclear receptor subfamily 1 group I member 2 (Rattus norvegicus) (UniProt Q9R1A7)
- Sequence (Q9R1A7 whole entry, looked up): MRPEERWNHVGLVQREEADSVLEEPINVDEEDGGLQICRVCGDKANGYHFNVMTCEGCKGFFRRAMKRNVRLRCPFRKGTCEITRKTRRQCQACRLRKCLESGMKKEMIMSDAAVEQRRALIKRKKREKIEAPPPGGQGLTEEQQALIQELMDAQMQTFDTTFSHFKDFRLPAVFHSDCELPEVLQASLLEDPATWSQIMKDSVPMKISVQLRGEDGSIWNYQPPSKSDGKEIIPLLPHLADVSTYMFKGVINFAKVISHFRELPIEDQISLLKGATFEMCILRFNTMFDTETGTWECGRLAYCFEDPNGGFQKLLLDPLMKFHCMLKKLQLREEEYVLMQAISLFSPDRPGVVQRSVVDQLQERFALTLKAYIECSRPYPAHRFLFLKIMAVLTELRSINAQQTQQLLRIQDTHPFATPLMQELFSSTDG
- PROTOCOL_DESCRIPTION: Rat pregnane X receptor (rPXR) activation by small molecules, qHTS assay (AID 1346983); note: % is set by controls: 0 for no effect and ±100 for the full control effect; nearly all actives have a fitted effect of over 20% in size
- RUN_PARAMETERS: rPXR luciferase reporter cells, One-Glo luminescence, 24 h; hits give high values
Inconclusive results are not listed. Active and inactive are the calls of the source. Calls come from the whole dose curve; as a rule, active = well fitted activation curve with a large enough effect in the repeat runs; inconclusive = weak or mixed curves; inactive = no such curve, though single readings can be large or run the other way.
Measured max activation of individual entries

The following compounds have reported results that may help.
1) CCC(=O)O[C@]1(c2ccccc2)CCN(C)C[C@H]1C :: -0.104% (inactive)
2) COc1ccc2c(c1)C13CCCC[C@@H]1C(C2)N(C)CC3 (stereo not given in full) :: -0.312% (inactive)
3) O=C1CN(O)C(c2ccccc2)=c2cc(Cl)ccc2=N1 :: -6.23% (inactive)
4) CNc1ccc(C(=O)CC(O)CCC(C)C2OC(=O)CC(O)CC(=O)CC(O)CC(O)CC(O)CC(O)CC3(O)CC(O)C(C(=O)OC)C(CC(O[C@@H]4O[C@H](C)[C@@H](O)[C@H](N)[C@@H]4O)/C=C/C=C/C=C/C=C/C=C/C=C/C=C/C2C)O3)cc1 (stereo not given in full) :: -1.47% (inactive)

As a next step, examine the compound that follows.
Sample CCC1C(C)=NN=C(c2ccc(OC)c(OC)c2)c2cc(OC)c(OC)cc21 (stereo not given) ; max activation observed: -0.64% (inactive)
